Target under test: Substance-K receptor (Oryctolagus cuniculus, UniProt P79218)
Sequence (P79218 whole entry): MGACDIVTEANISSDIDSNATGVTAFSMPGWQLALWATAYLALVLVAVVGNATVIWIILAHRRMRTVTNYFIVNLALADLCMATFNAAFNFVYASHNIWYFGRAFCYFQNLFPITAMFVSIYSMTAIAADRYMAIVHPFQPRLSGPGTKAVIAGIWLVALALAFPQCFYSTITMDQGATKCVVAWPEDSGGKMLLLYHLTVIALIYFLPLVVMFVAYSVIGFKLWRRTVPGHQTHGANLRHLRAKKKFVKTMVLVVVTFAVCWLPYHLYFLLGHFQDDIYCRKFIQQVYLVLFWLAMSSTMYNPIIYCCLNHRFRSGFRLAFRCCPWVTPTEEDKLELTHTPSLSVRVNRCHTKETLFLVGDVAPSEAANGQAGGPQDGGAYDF
Measurement description: Antagonist activity against Tachykinin receptor 2 was measured by Rabbit pulmonary artery(RPA) assay.
Type: functional
Condition context: read-out: pA2 (converted)
Readout label: Kb (µM)

Worked cases, Kb given:
Structure: CC(C)[C@H](NC(=O)[C@@H](Cc1c[nH]c2ccccc12)NC(=O)[C@H](Cc1ccc(O)cc1)NC(=O)[C@@H](N)CC(=O)O)C(=O)N[C@H](Cc1c[nH]c2ccccc12)C(=O)N[C@H](Cc1c[nH]c2ccccc12)C(=O)N[C@@H](Cc1ccccc1)C(=O)O
Kb (µM): 1.26
//
Structure: CC(C)[C@H](NC(=O)[C@@H](Cc1c[nH]c2ccccc12)NC(=O)[C@H](Cc1ccc(O)cc1)NC(=O)[C@@H](N)CC(=O)O)C(=O)N[C@H](Cc1c[nH]c2ccccc12)C(=O)N[C@H](Cc1c[nH]c2ccccc12)C(=O)N[C@@H](CCCN=C(N)N)C(=O)O
Kb (µM): 0.0224
//
Structure: CC(C)[C@H](NC(=O)[C@@H](Cc1c[nH]c2ccccc12)NC(=O)[C@H](Cc1ccc(O)cc1)NC(=O)[C@@H](N)CC(=O)O)C(=O)N[C@H](Cc1c[nH]c2ccccc12)C(=O)N[C@H](Cc1c[nH]c2ccccc12)C(=O)N[C@H](Cc1c[nH]c2ccccc12)C(=O)O
Kb (µM): 1.62
//
Structure: CC(C)[C@H](NC(=O)[C@@H](Cc1c[nH]c2ccccc12)NC(=O)[C@H](Cc1ccc(O)cc1)NC(=O)[C@@H](N)CC(=O)O)C(=O)N[C@H](Cc1c[nH]c2ccccc12)C(=O)N[C@H](Cc1c[nH]c2ccccc12)C(=O)NCC(=O)O
Kb (µM): 1.48
//
Structure: CC(C)C[C@H](NC(=O)[C@@H](Cc1c[nH]c2ccccc12)NC(=O)[C@@H](Cc1c[nH]c2ccccc12)NC(=O)[C@@H](NC(=O)[C@@H](Cc1c[nH]c2ccccc12)NC(=O)[C@H](Cc1ccc(O)cc1)NC(=O)[C@@H](N)CC(=O)O)C(C)C)C(=O)O
Kb (µM): 1.62
//
Structure: CC(C)[C@H](NC(=O)[C@@H](Cc1c[nH]c2ccccc12)NC(=O)[C@H](Cc1ccc(O)cc1)NC(=O)[C@@H](N)CC(=O)O)C(=O)NCC(=O)N[C@H](Cc1c[nH]c2ccccc12)C(=O)N[C@@H](CCCN=C(N)N)C(=O)O
Kb (µM): 19.5
//
Structure: CC(C)[C@@H](NC(=O)[C@@H](Cc1c[nH]c2ccccc12)NC(=O)[C@@H](Cc1ccc(O)cc1)NC(=O)[C@@H](N)CC(=O)O)C(=O)N[C@H](Cc1c[nH]c2ccccc12)C(=O)N[C@H](Cc1c[nH]c2ccccc12)C(=O)N[C@H](CCCN=C(N)N)C(=O)O
Kb (µM): 0.407
//
Structure: CSCC[C@H](NC(=O)[C@H](CC(C)C)NC(=O)CNC(=O)[C@@H](Cc1c[nH]c2ccccc12)NC(=O)[C@H](Cc1ccccc1)NC(=O)[C@H](Cc1ccc(O)cc1)NC(=O)[C@@H](N)CC(=O)O)C(=O)O
Kb (µM): 100

P: CC(C)[C@H](NC(=O)[C@@H](Cc1c[nH]c2ccccc12)NC(=O)[C@H](Cc1ccc(O)cc1)NC(=O)[C@@H](N)CC(=O)O)C(=O)N[C@H](Cc1c[nH]c2ccccc12)C(=O)N[C@H](Cc1c[nH]c2ccccc12)C(=O)N[C@@H](CCC(=O)O)C(=O)O
Q: CC(C)[C@H](NC(=O)[C@@H](Cc1c[nH]c2ccccc12)NC(=O)[C@H](Cc1c[nH]c2ccccc12)NC(=O)[C@@H](N)CC(=O)O)C(=O)N[C@H](Cc1c[nH]c2ccccc12)C(=O)N[C@H](Cc1c[nH]c2ccccc12)C(=O)N[C@@H](CCCN=C(N)N)C(=O)O
R: CC(C)[C@@H](NC(=O)[C@@H](Cc1c[nH]c2ccccc12)NC(=O)[C@@H](Cc1ccc(O)cc1)NC(=O)[C@@H](N)CC(=O)O)C(=O)NCC(=O)N[C@H](Cc1c[nH]c2ccccc12)C(=O)N[C@H](CCCN=C(N)N)C(=O)O
Would you mind ranking these compounds by ascending Kb? Quick reminder: the answer is the labels in the order asked. R, P, Q

A: CSCC[C@H](NC(=O)[C@@H](Cc1c[nH]c2ccccc12)NC(=O)[C@@H](Cc1c[nH]c2ccccc12)NC(=O)[C@@H](NC(=O)[C@@H](Cc1c[nH]c2ccccc12)NC(=O)[C@H](CO)NC(=O)[C@@H](N)CC(=O)O)C(C)C)C(=O)O
B: CC(C)[C@H](NC(=O)[C@H](Cc1c[nH]c2ccccc12)NC(=O)[C@H](Cc1ccc(O)cc1)NC(=O)[C@@H](N)CC(=O)O)C(=O)N[C@H](Cc1c[nH]c2ccccc12)C(=O)N[C@H](Cc1c[nH]c2ccccc12)C(=O)N[C@@H](CCCN=C(N)N)C(=O)O
Which record would sort first by descending Kb, A or B ? // return label of chosen record B
(B: 100 µM, A: 4.79 µM)

a: CC(C)[C@H](NC(=O)[C@@H](Cc1c[nH]c2ccccc12)NC(=O)[C@H](Cc1ccc(O)cc1)NC(=O)[C@@H](N)CCC(N)=O)C(=O)N[C@H](Cc1c[nH]c2ccccc12)C(=O)N[C@H](Cc1c[nH]c2ccccc12)C(=O)N[C@@H](Cc1ccccc1)C(=O)O
b: CC(C)[C@H](NC(=O)[C@@H](Cc1c[nH]c2ccccc12)NC(=O)[C@H](CCCCN)NC(=O)[C@@H](N)CC(=O)O)C(=O)N[C@H](Cc1c[nH]c2ccccc12)C(=O)N[C@H](Cc1c[nH]c2ccccc12)C(=O)N[C@@H](CCCCN)C(=O)O
c: CSCC[C@H](NC(=O)[C@H](CC(C)C)NC(=O)CNC(=O)[C@@H](Cc1c[nH]c2ccccc12)NC(=O)[C@H](Cc1ccccc1)NC(=O)[C@@H](Cc1c[nH]c2ccccc12)NC(=O)[C@@H](N)CC(=O)O)C(=O)O
d: CSCC[C@H](NC(=O)[C@@H](Cc1c[nH]c2ccccc12)NC(=O)[C@@H](Cc1c[nH]c2ccccc12)NC(=O)[C@@H](NC(=O)[C@@H](Cc1c[nH]c2ccccc12)NC(=O)[C@H](Cc1ccc(O)cc1)NC(=O)[C@@H](N)CC(=O)O)C(C)C)C(=O)O
Would you mind ranking these compounds by ascending Kb? Quick reminder: the answer is the labels in the order asked. d, a, c, b

// data source = ChEMBL document CHEMBL1128468
